Source listed as patent US10336697B2.

biological target: Bet BRD4 full length bromo-domain protein (Homo sapiens, UniProt O60885); experiment: Bet bromodomain TR-FRET assay (displacement of acetyl histone peptide); type: binding; settings: Bet BRD4 full length bromodomain protein, 300 nM acetyl histone peptide substrate, read-out: IC50
readout-name: IC50

Prompt line: Item COc1ccccc1S(=O)(=O)Nc1cc(OC2CCNCC2)c2c(c1)C1(CCC1)C(=O)N2 with Bet BRD4 full length bromo-domain protein (Homo sapiens, UniProt O60885) - IC50?
Response line: < 600 nM

Prompt line: Let us now turn to CCOC(=O)N1CCC(Nc2cc(NS(=O)(=O)c3ccc(F)cc3F)cc3c2NC(=O)C32CCC2)CC1
Response line: 600 to 1000 nM

Prompt line: Then what about the molecule CS(=O)(=O)N1CCC(Oc2cc(NS(=O)(=O)c3ccc(Cl)cc3F)cc3c2NC(=O)C32CCC2)CC1 ?
Response line: < 600 nM

Prompt line: Then what about the molecule O=C(Nc1ccccn1)c1cc(NS(=O)(=O)c2ccc(F)cc2F)cc2c1NC(=O)C21CCC1 ?
Response line: 600 to 1000 nM

Prompt line: // query: COc1ccccc1S(=O)(=O)Nc1cc(C(C)c2ccccc2)c2c(c1)C1(CCC1)C(=O)N2 (single isomer, unassigned) [Compound 114]
Response line: < 600 nM

Prompt line: Another: O=C(NC1CCOCC1)c1cc(NS(=O)(=O)c2ccc(F)cc2F)cc2c1NC(=O)C21CCC1
Response line: < 600 nM

Prompt line: Same again, this time with CN1CCC(C(=O)Nc2cc(NS(=O)(=O)c3ccc(F)cc3F)cc3c2NC(=O)C32CCC2)CC1
Response line: 600 to 1000 nM
